experiment: in vitro; conditions: human, hela cells, % viability
The following compounds are shown together with reported viability at 28.5 h, 10 µM values.
ENDPOINT LABEL: viability at 28.5 h, 10 µM (%)

| SMILES | ENDPOINT LABEL | ENDPOINT RESULT |
| --- | --- | --- |
| CCOc1ccc(-c2n[nH]c(C)c2-c2ccc(OC)c(OC)c2)c(O)c1 | viability at 28.5 h, 10 µM | 102 |
| O=S(=O)(c1ccc(-n2cnc(Cl)c2Cl)cc1)N1CCCN(Cc2ccc3cccc(O)c3n2)CC1 | viability at 28.5 h, 10 µM | 92 |
| Cc1cc(C)nc(-n2ncc(C#N)c2NC(=O)c2ccccc2)n1 | viability at 28.5 h, 10 µM | 111 |
